# study target: recombinant human BCMA-his protein (Acro biosystems, Cat #BCA-H522Y) (human) (UniProt Q02223)
# Sequence (Q02223 1-54, stated change not applied): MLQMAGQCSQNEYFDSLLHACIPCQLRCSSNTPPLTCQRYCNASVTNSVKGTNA
# assay method text: BLI Octet RED96, antibody on AHC sensor, BCMA-his in solution
Reported koff is given for each of the following binders.
Report only the number, with the unit s⁻¹ understood.

Some entries whose results are on file:
1. huB1H2-V24 (antibody, human IgG1, kappa, V domains shown) VH: QVQLVQSGAEVKKPGASVKVSCKASGYTLTNYVMHWVRQAPGQGLEWIGFIIPFNDGTKYNEHFKGRVTITSDKSISTAYMQLSSLRSEDTAVYYCARYDFEGYFDVWGQGTLVTVSS VL: DIQMTQSPSSLSASVGDRVTITCSASQDITNFLNWYQQKPGKAPKLLIYSTSRLHSGVPSRFSGSGSGTDYTLTISSLQPEDIATYYCQQYSNLPWTFGQGTKVEIKR: 0.001
2. huB1H2-V15 (antibody, human IgG1, kappa, V domains shown) VH: QVQLVQSGAEVKKPGASVKVSCKASGYTLTNYVMHWMRQAPGQGLEWIGFIIPFNDGTKYNEHFKGRVTITRDTSISTAYMQLSSLRSEDTAVYYCARYDFEGYFDVWGQGTLVTVSS VL: DIQMTQSPSSLSASVGDRVTITCSASQDITNFLNWYQQKPGKAVKLLIYSTSRLHSGVPSRFSGSGSGTDFTLTISSLQPEDIATYYCQQYSNLPWTFGQGTKVEIKR: 0.00137

Here is another binder to look at.
Note koff for the binder shown: huB1H2-V17 (antibody, human IgG1, kappa, V domains shown) VH: QVQLVQSGAEVKKPGASVKVSCKASGYTLTNYVMHWVRQAPGQGLEWIGFIIPFNDGTKYNEHFKGRVTITRDKSISTAYMQLSSLRSEDTAVYYCARYDFEGYFDVWGQGTLVTVSS VL: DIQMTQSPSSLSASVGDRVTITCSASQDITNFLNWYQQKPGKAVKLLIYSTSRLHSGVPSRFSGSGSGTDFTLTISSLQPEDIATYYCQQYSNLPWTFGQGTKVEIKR
0.00238
